// provenance: the supplement of paper PMC10567573

protocol_details: protein stability index of a GFP-peptide fusion (GPS, HEK-293T) (PSI 1-6); higher = more stable;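 further: 24-mer peptide tiles fused after GFP, lentivirally expressed, FACS-sorted into six equal bins by GFP/DsRed ratio, decoded by Illumina sequencing, PSI is the read-weighted mean bin number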
condition_description: treatment: DMSO; c terminus: a fixed tail appended
Given measured protein stability index, output yes if it is greater than or equal to 3 and no if not.

- EGASSDNGCEVKNRKSILSRHLNS [PHTF1]: yes
- HEEEVSVLRCQLGDRLNVEVDAAP [KRT36]: yes
- TLWDVFGANKEVQELLERGLLQLD [RSAD1]: no
- PQQYMAFLPHHIMVKIFRLLPTKS [FBXO34]: no
- ESDSQGQGNGLFYSSGPQSWYPKA [ZC2HC1C]: yes
- TAAMRCMCPLYDPNRQLWIELAPL [GAN]: no
- GRTCITDLQLTVGGAQASGTLIGV [MFSD9]: no
- VKVVLIPVGQEIVIPFKVDTILKY [IQUB]: yes
- YLQIFATRRSCIDESQISAEEAED [FAM189A2]: yes
- PWVYILLRKAVLKNLYKLASQCCG [PTGFR]: no
- PVPGKTLHLPIMGVVMKVRIPTCH [DENND6A]: no
